Tested Target: T1, recombinant soluble HCV E1 protein (hepatitis C virus)
T1 construct: It is not the cell-surface E1-myc construct (aa 174-359 of H77c) that was used for phage selection; also called recombinant E1; soluble E1 protein
Test Details: ELISA, recombinant E1 captured on GNA lectin; crude periplasmic Fab
# OD405 nm per record follows

Binder | OD405 nm (OD405 nm)
Fab clone 1:10 (Fab, V domains shown, Human Fab (gamma1 Fd + kappa), crude periplasmic preparation, approx. 0.01 ug Fab/ml) VH: EVQLLESGAEVKKPGESLRISCRGSGYSFPNYWVSWVRQMPGKGLEWMGKIDPSDSETNYSPSFQGHVTISADKSLSIAYLQWNSLKASDTAMYYCARHKRGAPTYKDILTGYYVDGMDVWGQGTTVTVSS VL: AELTQSPDSLAMSLGERASINCKSSRSLLYSSNNKNYLAWYQQKSGHPPKLLIYWASTRESGVPDRFNGSGSGTDFTLTISSLQAEDVAVYFCQQYYSSPLTFGGGTKVEIK | 0.2
Fab clone 2a-13 (Fab, V domains shown, Human Fab (gamma1 Fd + kappa), crude periplasmic preparation, approx. 0.36 ug Fab/ml) VH: EVQLLESGPGLVKPSETLSLTCTVSGGSISDYYWSWIRQPPGKGLEWIGHTYDNGGTKYNPSLKSRASISVDTSKNQVSLRLTSVTAADTAVYYCATAFLDNSGWYTFDSWGQGSLVTV VL: AELTQSPSSVSASVRDRVTITCRASQGISTWLAWYQQKPGKAPKLLIYAASTLQSGVPSRFSGSGSGTDFTLTIGSLQPEDVATYYCQQANSFPPGALTFGGGTKVEVK | 1.05
Fab clone 2a-25 (Fab, V domains shown, Human Fab (gamma1 Fd + kappa), crude periplasmic preparation, approx. 0.11 ug Fab/ml) VH: VQLLEQSGAEVKKPGASVKVSCKASGYMFTCYYMHWVRQAPGQGLEWMGMVNPTGGSSSYAQKFQGRVTMTKGHVTSTVYMELSSLRSEDTAVYYCATGMVRGDEWGQGTLVTVSS VL: AELTQSPSFSSASVGDRVTITCRASHGISSHLAWFQHKPGKAPNLLIYAASTLQSGVPSRFSGSQSGTEFTLTITSLHPEDFATYYCQQLYTWPMGFGQGTRLEIT | 1.46
Fab clone 2b-1 (Fab, V domains shown, Human Fab (gamma1 Fd + kappa), crude periplasmic preparation, approx. 0.94 ug Fab/ml) VH: EVQLLESGPRLVKPSQTLSLTCTVSGDSLNNASHYWAWIRQPAGKGLEWIGRIHRGGSTNYNPSLQSRVTISMDESKNQFSLRLNSVTAADTAVYYCARDPPKAWGPGILVTVSS VL: AELTQSPSSLSASVGDRVTIACRASQSISNHLNWYQQKPGKAPKVLIYAASSLQSGVPSRFSGSGSGTDFTLTISSLQPEDFAIYYCQQSYSNADFGPGTKVDIK | 0.35
Fab clone 2a-32 (Fab, V domains shown, Human Fab (gamma1 Fd + kappa), crude periplasmic preparation, approx. >1 ug Fab/ml) VH: VQLLEQSGGDLVKPGGSLRLSCAASGFTFTDYYMNWIRQAPGKGLEWIAYISIGSDDTKYAASVKGRFSISRDNAKNSLYLQMNSLRVEDTAVYYCGRGGGYCSGGNCYSSDYWGQGALVTVSS VL: AELTQSPSSLSAFTGDRVSITCRASQGIGNSLAWYQQKPGHVPKVLIYDASTLSSGAPSRFSGSGSGTDFTLTISGLQPEDVATYYCQKYKSAPLTFGGGTKVEIR | 0.61
Fab clone 2a-14 (Fab, V domains shown, Human Fab (gamma1 Fd + kappa), crude periplasmic preparation, approx. 0.72 ug Fab/ml) VH: VQLLEQSGGGVVQPGRSLRLSCAASGFTFSTYAMHWVRQAPGKGLEWVAVISHDGSNKFYADSVKGRFTISRDSSKNTLYLQMNSLRPGDTAVYYCSRWDRRAEYFQDWGQGTLVTVSS VL: AELTQSPAFMSATPGDKVNISCKASQDIDDDMNWYQQKPGEAAIFIIQEATTLVPGIPPRFSGSGYGTDFTLTINNIESEDAAYYFCLQHDNFPLTFGQGTKVEIK | 0.36
Fab clone 2b-10 (Fab, V domains shown, Human Fab (gamma1 Fd + kappa), crude periplasmic preparation, approx. >1.0 ug Fab/ml) VH: EVQLLESGGGVVQPGRSLKLSCTASTFTFTNYAMHWVRQAPGKGLEWVALISNDGSKTYYTDSVRGRFTISRDNSKNTLFLQMNSLRTEDTAVYHCARVKLQGSFNVYYYYGLDVWGQGTTVTVSS VL: AELTQSPLSLPVTPGEPASISCRSSQSLLHSDGYNYFDWYLQKPGQSPQLLIYLGSNRASGVPDRFSGSGSDTDFTLKISRVEAEDVGVYYCMQTLQTLTFGGGTKLEIK | 0.48
Fab clone 1:9 (Fab, V domains shown, Human Fab (gamma1 Fd + kappa), crude periplasmic preparation, approx. 0.05 ug Fab/ml) VH: EVQLLESGPGLVKPSETLSLTCTVSGNSISSGYYWVWFRQSPGKGLEWIASIYHSGSTYYNPSLRSRVSISVDTSKKQFSLKLSSVTAADTAVYYCARDSAKTTRYFVHWGQGTLVTVSS VL: AELTQSPGTLSLSPGERATLSCRASQSVSSSYLAWYQQKAGQAPRLLIYGASRRATGIPVRFSGSGSGAEFTLTISSLQSEDSAVYYCQHYHNWPAMYTFGQGTKLEIK | 0.96
Fab clone 98 (Fab, V domains shown, Human Fab (gamma1 Fd + kappa light chain), tested as a crude periplasmic preparation, approx. 5 ug Fab/ml) VH: EVQLLEQSGAEVKKPGESLRISCRGSGYSFPNYWVSWVRQMPGKGLEWMGKIDPSDSETNYSPSFQGHVTISADKSLSIAYLQWNSLKASDTAMYHCARHKRGAPTYKDILTGYYVDGMDVWGQGTTDTVSS VL: AELTQSPSSLSASVGDRVTITCQASPDISNYLNWYQQKPGKAPNLLIYGASSLQRGVPSRLSGSGSGTDFTLTIDSLQPEDFATYYCQQSYGSPHTFGQGTKVEIK | 0.2
